- System: 4T1 murine breast cancer cells
- Experiment Description: Example S: in vitro anticancer screen, 4T1 cells, Wst1
- Format: cell-based, mouse
- Assay Setup: Mus musculus, 4T1, 18 h, 5 μM, 18 hr, Wst1; read-out: 4T1 5 μM, percent of cancer cell survival relative to vehicle treated cells
The entries below come with measured viability at 5 µM values attached.
Readout Name: viability at 5 µM (%)

INSERT INTO measurements (molecule, system, unit_name, measured_number) VALUES
  ('CCCCCCOCCCCCCCCNc1cccc2cccnc12 [EM, N-[8-(Hexyloxy)octyl]quinolin-8-amine]', '4T1 murine breast cancer cells', '%', 93),
  ('c1ccc(-c2ccc(Nc3ccnc4ccccc34)cc2)cc1', '4T1 murine breast cancer cells', '%', 96.7),
  ('COc1ccc(OCCCCCCNc2ccnc3ccccc23)cc1', '4T1 murine breast cancer cells', '%', 20.7),
  ('CCCCCCNC(=O)c1ccc(Nc2ccnc3ccccc23)cc1 [AQ, N-Hexyl-4-(quinolin-4-ylamino)benzamide]', '4T1 murine breast cancer cells', '%', 92.7),
  ('Fc1ccccc1OCCCCCCCCNc1ccnc2ccccc12', '4T1 murine breast cancer cells', '%', 22.2),
  ('Cc1ccc(OCCCCCCCCNc2ccnc3ccccc23)cc1 [BF, N-[8-(p-Tolyloxy)octyl]quinolin-4-amine]', '4T1 murine breast cancer cells', '%', 19),
  ('O=C(NCCCCCCCCNc1ccnc2ccccc12)c1ccncc1', '4T1 murine breast cancer cells', '%', 27.7),
  ('CCCCCCc1ccc(Nc2ccnc3ccccc23)cc1', '4T1 murine breast cancer cells', '%', 18.6),
  ('c1ccc(OCCCCCCCCNc2ccnc3ccccc23)cc1', '4T1 murine breast cancer cells', '%', 50.3),
  ('CCCCCCOCCCCCCCC(=O)Nc1ccc2ncccc2c1 [CB, N-(Quinolin-6-yl)-8-(hexyloxy)octanamide]', '4T1 murine breast cancer cells', '%', 102),
  ('c1ccc(Oc2cccc(CNc3ccnc4ccccc34)c2)cc1', '4T1 murine breast cancer cells', '%', 25.6),
  ('CCCCCCOCCCCCCCCNc1ccnc2c(Cl)cccc12', '4T1 murine breast cancer cells', '%', 18),
  ('CCCCCCOCCCCCCCCNc1ccnc2cc(C(F)(F)F)ccc12', '4T1 murine breast cancer cells', '%', 34.5),
  ('CCCCCCOCCCCCCCCn1cnc2cnc3ccccc3c21', '4T1 murine breast cancer cells', '%', 22.6),
  ('CCCCCCCCCCCCCCCCn1cnc2cnc3ccccc3c21 [FE, 1-Hexadecyl-1H-imidazo[4,5-c]quinoline]', '4T1 murine breast cancer cells', '%', 31.7),
  ('CCCCCCOc1ccc(CNc2ccnc3ccccc23)cc1 [AA, N-[4-(Hexyloxy)benzyl]quinolin-4-amine]', '4T1 murine breast cancer cells', '%', 31.2),
  ('CCCCCCOCCCCCCCCCCNc1ccnc2ccccc12 [Compound AL, N-[10-(Hexyloxy)decyl]quinolin-4-amine]', '4T1 murine breast cancer cells', '%', 18.3),
  ('CCCCCCOCCCCCCCCNc1ccccn1 [FP, N-[8-(Hexyloxy)octyl]pyridin-2-amine]', '4T1 murine breast cancer cells', '%', 116),
  ('COc1cccc(OCCCCCCCCNc2ccnc3ccccc23)c1', '4T1 murine breast cancer cells', '%', 19.3),
  ('c1ccc2c(NCc3ccncc3)ccnc2c1', '4T1 murine breast cancer cells', '%', 260);

Source listed as patent US20250034139A1.
